Listed here: items and their measured pIC50.
Target: human calpain-1 (Homo sapiens)
Sequence (P07384 1-714): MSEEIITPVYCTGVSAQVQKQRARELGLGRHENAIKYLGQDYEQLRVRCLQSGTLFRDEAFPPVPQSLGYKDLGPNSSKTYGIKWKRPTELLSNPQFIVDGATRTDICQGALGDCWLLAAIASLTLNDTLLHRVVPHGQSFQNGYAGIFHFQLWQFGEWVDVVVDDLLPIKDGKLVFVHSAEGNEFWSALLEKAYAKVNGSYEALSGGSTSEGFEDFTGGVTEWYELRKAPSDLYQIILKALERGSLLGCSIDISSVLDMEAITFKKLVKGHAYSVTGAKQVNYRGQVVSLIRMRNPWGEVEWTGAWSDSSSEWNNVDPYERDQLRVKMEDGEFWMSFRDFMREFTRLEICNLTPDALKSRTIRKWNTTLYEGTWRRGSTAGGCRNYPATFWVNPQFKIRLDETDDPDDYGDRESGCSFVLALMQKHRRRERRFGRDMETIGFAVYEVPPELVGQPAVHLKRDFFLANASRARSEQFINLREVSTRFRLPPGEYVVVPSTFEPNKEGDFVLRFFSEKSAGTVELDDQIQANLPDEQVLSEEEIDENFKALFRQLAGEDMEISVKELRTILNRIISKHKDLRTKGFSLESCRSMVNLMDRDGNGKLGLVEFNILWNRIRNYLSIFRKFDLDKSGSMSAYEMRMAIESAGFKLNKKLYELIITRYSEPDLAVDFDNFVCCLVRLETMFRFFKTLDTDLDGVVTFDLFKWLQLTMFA
Sequence (P04632 1-268 partner): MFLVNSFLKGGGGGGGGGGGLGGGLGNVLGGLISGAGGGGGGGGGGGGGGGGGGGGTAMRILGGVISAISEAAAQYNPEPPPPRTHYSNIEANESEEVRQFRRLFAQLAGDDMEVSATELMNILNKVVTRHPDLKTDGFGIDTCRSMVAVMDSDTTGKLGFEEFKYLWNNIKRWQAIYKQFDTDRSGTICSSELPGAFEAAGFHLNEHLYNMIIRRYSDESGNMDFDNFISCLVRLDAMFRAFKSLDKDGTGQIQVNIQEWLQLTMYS
pIC50: −log10 of the molar value.
assayReadout: pIC50

1) CCC(NC(=O)[C@H](CC(C)C)NC(=O)CCc1ccccc1)C(=O)C(=O)NCc1cc(F)cc(OC)c1 (stereo partly drawn) [NA115]
6.12
2) CC[C@H](NC(=O)[C@H](CC(C)C)NC(=O)CCc1ccccc1)C(=O)C(=O)NCc1cc(F)cc(OC)c1 [NA115A]
6.48
